Test: compound effects on hepatocellular carcinoma cell viability – HepG2, calcein-AM fluorescence, 48 h, basal, profiling panel (AID 1164); also: test concentration not given here
Conditions: higher = more signal
resultType: z-score

• COCCOC(=O)N1C(=O)[C@@]2(c3ccccc31)[C@H](C(=O)NC[C@H](O)c1ccccc1)[C@H]1C(=O)O[C@H](c3ccccc3)[C@H](c3ccccc3)N1[C@@H]2c1ccc(O)cc1 = -0.921
• COC(=O)C1(CC(C)C)C=C2C(=C(c3ccccc3)C(=O)C2C)CN1 (centres undefined) = 0.0661
• CCOC(=O)C[C@H]1[C@H](OC(=O)Cc2ccc3c(c2)OCO3)[C@@H](NC(=O)c2ccc3ccccc3n2)c2cc(OCCCO)ccc2N1C(=O)c1ccc2ccccc2n1 = 1.83
• CO[C@H]1O[C@H](CO)[C@@H](OC(=O)Nc2ccccc2)[C@H](OC(=O)c2cc3ccccc3[nH]2)[C@H]1OC(=O)c1cc2ccccc2[nH]1 = 0.131

* * *

Experiment: hepatitis C replication reporter changes, two-sided – Huh7 cells, luciferase reporter, HCV replication inhibitor project, primary screen (AID 1109);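 also: huh7 hepatoma cells harbouring a luciferase neomycin HCV replicon reporter; luciferase luminescence as measure of HCV replicon replication; test concentration not given here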
Details: Huh7 HCV replicon luciferase reporter, 48 h; higher = more signal
Hi, to clarify the labels: rule met covers z-score from -0.9 upward, rule not met covers anything below -0.9.

• CCCNC(=O)[C@@]1(Sc2ccc(C)cc2)CC(=O)N(C2Cc3ccccc3C2)[C@@H]1c1ccc(CO)cc1I = rule not met
• COc1ccc(C#Cc2ccc3c(c2)[C@]2(C(=O)N3)[C@H](c3ccc(O)cc3)N3[C@H](c4ccccc4)[C@H](c4ccccc4)OC(=O)[C@H]3[C@@H]2C(=O)Nc2nc3ccccc3s2)cc1 = rule not met
• CCCC[C@@H]1C[C@H]1[C@@H](NC(=O)c1cccs1)c1ccccc1C(F)(F)F = rule met
• O=C1C[C@]2(c3ccc([N+](=O)[O-])cc3)C(=O)N(C3CC3)c3cc(CO)ccc3[C@H]2N1CC12CC3CC(CC(C3)C1)C2 = rule met
• O=C1C2C=CC(C(O)c3cccc(O)c3)N(Nc3ccc([N+](=O)[O-])cc3)C2C(=O)N1c1ccccc1 (centres undefined) = rule met
• CC1CC/C=C\[C@H]2OC34C=CCN(C(C)(C)C)C(=O)[C@H]3N(CCCCCO)C(=O)[C@@H]4C2C(=O)O1 (some centres undefined) = rule met
• N[C@@H](Cc1ccccc1)C(=O)NCc1cn(Cc2ccccc2)nn1 = rule met
• COCC(=C=CC[C@H](O)c1ccc(CO)o1)CCO = rule met
• COCCOC(=O)N1C(=O)[C@@]2(c3ccccc31)[C@H](C(=O)NC[C@H](O)c1ccccc1)[C@H]1C(=O)O[C@H](c3ccccc3)[C@H](c3ccccc3)N1[C@@H]2c1ccc(O)cc1 = rule not met
• CN(C)C(=O)[C@]1(Cc2ccccc2CN=[N+]=[N-])N=C(c2ccc(OCCCO)cc2)O[C@@H]1c1ccccc1 = rule not met
• COCCCNC(=O)[C@@]1(CCC(=O)OC(C)(C)C)N=C(c2ccc(OCCCO)cc2)O[C@H]1c1ccccc1N=[N+]=[N-] = rule met
• CCOC(=O)C[C@H]1[C@H](OC(=O)Cc2ccc3c(c2)OCO3)[C@@H](NC(=O)C2CCCCC2)c2cc(OCCCO)ccc2N1C(=O)c1ccccc1 = rule met
• O=C(c1ccccc1)N1C(=O)[C@]2(Cc3ccccc31)N=C(c1ccc(OCCCO)cc1)O[C@@H]2c1ccccc1 = rule not met
• CN(C)C(=O)[C@@]1(Cc2ccccc2CN=[N+]=[N-])N=C(c2ccc(OCCCO)cc2)O[C@H]1c1ccccc1N=[N+]=[N-] = rule not met
• COc1cc(NN2C(C(O)c3ccc(N(C)C)cc3)C=CC3C(=O)N(c4ccccc4)C(=O)C32)cc(OC)c1OC (centres undefined) = rule not met
• COc1cccc(C)c1NC(=O)O[C@H]1[C@H](OC(=O)Nc2ccccc2-c2ccccc2)[C@H](OC(=O)Nc2ccccc2-c2ccccc2)[C@@H](OC)O[C@@H]1CO = rule not met
• C=C(COC)/C(=C/C[C@H](OC(=O)c1ccncc1)c1ccccc1OCCO)c1cc(C(=O)OC)ccc1OC = rule not met
• COC(=O)C1=CC(CCCO)=CC(c2cccs2)N(Cc2cccc(OC(F)(F)F)c2)C=C1C(=O)OC (centres undefined) = rule not met
• COC(=O)c1c(CC[C@@H](CO)NC(=O)N[C@@H](C)Cn2cc(-c3ccccn3)nn2)oc(C(C)=O)c1C(=O)OC = rule met
• COc1ccc([Si](C)(C)[C@@H]2[C@@H](CCO)O[C@]3(C(=O)N(Cc4ccccc4)c4ccc(N5CCOC5=O)cc43)[C@H]2C)cc1 = rule not met
• CC[C@@H]1O[Si](C(C)C)(C(C)C)c2c1cc(-c1cc(C)c(OC)c(C)c1)nc2-c1ccc(Oc2ccccc2)cc1 = rule met
• COc1ccc([Si](C)(C)[C@@H]2[C@@H](CC(=O)N(CCO)Cc3ccccc3)O[C@]3(C(=O)N(Cc4cccc(N5CCCCC5=O)c4)c4ccccc43)[C@H]2C)cc1 = rule not met
• [N-]=[N+]=Nc1ccccc1C[C@@]1(C(=O)NCCN2CCOCC2)N=C(c2ccc(OCCCO)cc2)O[C@@H]1c1ccccc1N=[N+]=[N-] = rule not met
• O=C1CS(=O)(=O)C(c2cccc([N+](=O)[O-])c2)N1c1ccccc1 (centres undefined) = rule met
• CC(C)N1C(=O)C[C@@](C(=O)O)(c2ccc([N+](=O)[O-])cc2)[C@H]1c1ccc(CO)cc1 = rule met
• [N-]=[N+]=Nc1ccccc1C[C@@]1(C(N)=O)N=C(c2ccc(OCCCO)cc2)O[C@@H]1c1ccccc1N=[N+]=[N-] = rule not met
• COc1ccc([Si](C)(C)[C@H]2[C@H](CC(=O)N3CCC[C@H]3CO)O[C@@]3(C(=O)N(Cc4ccc(N5CCOC5=O)cc4)c4ccccc43)[C@@H]2C)cc1 = rule not met
• O=C1C2C=CC(C(O)c3ccco3)N(Nc3ccccc3F)C2C(=O)N1c1ccccc1 (centres undefined) = rule met

Data credit: PubChem BioAssay
